Values from the NIST ThermoML archive (doi:10.1021/je060257y)

- Assay Protocol: molar heat capacity at constant pressure
- Protocol Conditions: 318.15 K; 101.33 kPa; Crystal

>  <Compound>
Cc1cc(=O)[nH]c(=O)n1C

>  <molar heat capacity at constant pressure / J/K/mol>
206.8

$$$$
>  <Compound>
Oc1ncc(Cl)c(O)n1

>  <molar heat capacity at constant pressure / J/K/mol>
146.1

$$$$
>  <Compound>
CCc1cc(=O)n(C)c(=O)n1C

>  <molar heat capacity at constant pressure / J/K/mol>
248.3

$$$$
>  <Compound>
Cn1ccc(=O)[nH]c1=O

>  <molar heat capacity at constant pressure / J/K/mol>
200.5

$$$$
>  <Compound>
Cc1cc(=O)n(C)c(=O)[nH]1

>  <molar heat capacity at constant pressure / J/K/mol>
198.4

$$$$
>  <Compound>
Cc1c(C)n(C)c(=O)n(C)c1=O

>  <molar heat capacity at constant pressure / J/K/mol>
260.9

$$$$
>  <Compound>
O=c1[nH]cc(Br)c(=O)[nH]1

>  <molar heat capacity at constant pressure / J/K/mol>
153.9

$$$$
>  <Compound>
Cc1nc(O)nc(O)c1C [2,4-dihydroxy-5,6-dimethylpyrimidine]

>  <molar heat capacity at constant pressure / J/K/mol>
212

$$$$
>  <Compound>
O=c1cc(Cl)[nH]c(=O)[nH]1

>  <molar heat capacity at constant pressure / J/K/mol>
141.3

$$$$
>  <Compound>
O=c1[nH]cc(C(F)(F)F)c(=O)[nH]1

>  <molar heat capacity at constant pressure / J/K/mol>
192.2

$$$$
>  <Compound>
O=[N+]([O-])c1cnc(O)nc1O

>  <molar heat capacity at constant pressure / J/K/mol>
171.1

$$$$

----------
- Assay Protocol: molar heat capacity at constant pressure
- Protocol Conditions: 323.15 K; 101.33 kPa; Crystal
Quick list: molar heat capacity at constant pressure per entry.

>  <Molecule Smiles>
O=c1[nH]cc(I)c(=O)[nH]1

>  <Readout Units>
J/K/mol

>  <molar heat capacity at constant pressure>
165.8

$$$$
>  <Molecule Smiles>
CCCc1cc(=O)n(C)c(=O)n1C

>  <Readout Units>
J/K/mol

>  <molar heat capacity at constant pressure>
303.9

$$$$
>  <Molecule Smiles>
Cn1ccc(=O)[nH]c1=O

>  <Readout Units>
J/K/mol

>  <molar heat capacity at constant pressure>
211.1

$$$$

----------
Quick list: molar heat capacity at constant pressure per entry.
- Assay Protocol: molar heat capacity at constant pressure
- Protocol Conditions: 343.15 K; 101.33 kPa; Crystal

>  <Compound>
Cc1cc(O)nc(O)n1 [2,4-dihydroxy-6-methylpyrimidine]

>  <molar heat capacity at constant pressure / J/K/mol>
193

$$$$
>  <Compound>
Cc1cn(C)c(=O)[nH]c1=O [1,5-dimethyluracil]

>  <molar heat capacity at constant pressure / J/K/mol>
205.2

$$$$
>  <Compound>
Cn1ccc(=O)[nH]c1=O [1-methyl-2,4(1H,3H)-pyrimidinedione]

>  <molar heat capacity at constant pressure / J/K/mol>
256.1

$$$$
>  <Compound>
O=c1[nH]cc(C(F)(F)F)c(=O)[nH]1 [5-(trifluoromethyl)uracil]

>  <molar heat capacity at constant pressure / J/K/mol>
206.6

$$$$
>  <Compound>
O=[N+]([O-])c1cnc(O)nc1O [2,4-pyrimidinedione, 5-nitro-]

>  <molar heat capacity at constant pressure / J/K/mol>
174.5

$$$$
>  <Compound>
Cc1nc(O)nc(O)c1C [2,4-dihydroxy-5,6-dimethylpyrimidine]

>  <molar heat capacity at constant pressure / J/K/mol>
234.1

$$$$
>  <Compound>
Cc1cc(=O)[nH]c(=O)n1C [1,6-dimethyluracil]

>  <molar heat capacity at constant pressure / J/K/mol>
239.8

$$$$
>  <Compound>
O=c1[nH]cc(Br)c(=O)[nH]1 [5-bromouracil]

>  <molar heat capacity at constant pressure / J/K/mol>
164.8

$$$$
